Ref: paper PMC5974088

# TEST SYSTEM: T1, mouse TIRR (6-211) (M. musculus, UniProt Q8VHN8 6-211)
# T1 construct: overhang left after TEV cleavage, printed as Gly-His-Met; TIRR (Nudt16L1), M. musculus, residues 6-211; Homodimer by ultracentrifugation and in the crystal; also called Nudt16L1; source: E. coli BL21-Codon PLUS(DE3)-RIPL, purified (Ni-NTA, TEV, heparin, Superdex200); not shown: His6, N-terminal, cleaved
# T1 sequence (Q8VHN8 other isoform, or with tags, fused parts or gaps): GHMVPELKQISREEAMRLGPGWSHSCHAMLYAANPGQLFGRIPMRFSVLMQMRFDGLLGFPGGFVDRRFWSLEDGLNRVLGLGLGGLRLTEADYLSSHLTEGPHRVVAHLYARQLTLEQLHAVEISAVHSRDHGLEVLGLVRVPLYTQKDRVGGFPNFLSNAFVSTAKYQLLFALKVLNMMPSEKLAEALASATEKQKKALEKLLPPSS
# TEST: ITC; 200-400 μM 53BP1 Tudor domain (wt or mutant) injected into 200 μl of 22-44 μM TIRR or Nudt16 (wt or mutant); 25 °C; 20 mM Tris-HCl pH 7.5, 150 mM NaCl; single-site binding model
# TEST CONDITIONS: both partners purified
Please provide measured Kd for the entries that follow.
Answers are plain numbers, in µM.

Hey, can you go through the list below and give me Kd for every item?
1. 53BP1 Tudor W1495A (domain or fragment, H. sapiens, overhang left after TEV cleavage, printed as Gly-His-Met; 53BP1 tandem Tudor domain, H. sapiens, residues 1484-1603; source: E. coli BL21-Codon PLUS(DE3)-RIPL, purified as the wt protein; not shown: His6, N-terminal, cleaved) GHMNSFVGLRVVAKASSNGYFYSGKITRDVGAGKYKLLFDDGYECDVLGKDILLCDPIPLDTEVTALSEDEYFSAGVVKGHRKESGELYYSIEKEGQRKWYKRMAVILSLEQGNRLREQYGLG
2. 53BP1 Tudor Y1523A (domain or fragment, H. sapiens, overhang left after TEV cleavage, printed as Gly-His-Met; 53BP1 tandem Tudor domain, H. sapiens, residues 1484-1603; source: E. coli BL21-Codon PLUS(DE3)-RIPL, purified as the wt protein; not shown: His6, N-terminal, cleaved) GHMNSFVGLRVVAKWSSNGYFYSGKITRDVGAGKYKLLFDDGAECDVLGKDILLCDPIPLDTEVTALSEDEYFSAGVVKGHRKESGELYYSIEKEGQRKWYKRMAVILSLEQGNRLREQYGLG

15.4
28.5
